assay.procedure: Pharmacokinetics in normal rats after oral administration of Zushima-Gancao extract (UHPLC-MS/MS of plasma)
Type: in vivo
recorded.conditions: male, Sprague-Dawley, rat, oral Zushima-Gancao extract 10 mL/kg single dose, n = 6, mean ± SD
# Lookup of reported half-life keyed by entry
Note: unit min is implicit; provide only the numeric part.

Observe how each entry below is paired with its result.
O=C1C[C@@H](c2ccc(O)cc2)Oc2cc(O)ccc21 = 99.6
O=C(/C=C/c1ccc(O)cc1)c1ccc(O)cc1O = 64.8

Could you share which half-life value was measured for COc1cc2cc(Oc3ccc4ccc(=O)oc4c3)c(=O)oc2cc1O ?
872

Could you share which half-life value was measured for O=c1ccc2ccc(O)c(O)c2o1 ?
204

Could you share which half-life value was measured for O=C1C[C@@H](c2ccc(O[C@@H]3O[C@H](CO)[C@@H](O)[C@H](O)[C@H]3O)cc2)Oc2cc(O)ccc21 ?
28.2

Could you share which half-life value was measured for O=c1ccc2ccc(O)cc2o1 [HDC, 7-hydroxycoumarin] ?
172

Could you share which half-life value was measured for CC1(C)[C@@H](O[C@H]2O[C@H](C(=O)O)[C@@H](O)[C@H](O)[C@H]2O[C@@H]2O[C@H](C(=O)O)[C@@H](O)[C@H](O)[C@H]2O)CC[C@]2(C)[C@H]3C(=O)C=C4[C@@H]5C[C@@](C)(C(=O)O)CC[C@]5(C)CC[C@@]4(C)[C@]3(C)CC[C@@H]12 ?
523

Could you share which half-life value was measured for O=C(/C=C/c1ccc(O[C@@H]2O[C@H](CO)[C@@H](O)[C@H](O)[C@H]2O)cc1)c1ccc(O)cc1O ?
31.2

Could you share which half-life value was measured for CC1(C)[C@@H](O)CC[C@]2(C)[C@H]3C(=O)C=C4[C@@H]5C[C@@](C)(C(=O)O)CC[C@]5(C)CC[C@@]4(C)[C@]3(C)CC[C@@H]12 ?
233

====

# Lookup of reported log10 AUC(0-t) keyed by entry
assay.procedure: Pharmacokinetics in adjuvant-induced arthritis (AA) rats after oral administration of Zushima-Gancao extract (UHPLC-MS/MS of plasma)
recorded.conditions: male, Sprague-Dawley, rat, plasma, po, 10 mL/kg
Log scale reminder: AUC(0-t) in ng·h/mL, then log10 taken.

O=C1C[C@@H](c2ccc(O[C@@H]3O[C@H](CO)[C@@H](O)[C@H](O)[C@H]3O)cc2)Oc2cc(O)ccc21 = 1.52
O=c1ccc2ccc(O)c(O)c2o1 = 2.22

Could you share which log10 AUC(0-t) value was measured for O=C1C[C@@H](c2ccc(O)cc2)Oc2cc(O)ccc21 ?
2.29

Could you share which log10 AUC(0-t) value was measured for COc1cc2cc(Oc3ccc4ccc(=O)oc4c3)c(=O)oc2cc1O ?
1.94

Could you share which log10 AUC(0-t) value was measured for CC1(C)[C@@H](O[C@H]2O[C@H](C(=O)O)[C@@H](O)[C@H](O)[C@H]2O[C@@H]2O[C@H](C(=O)O)[C@@H](O)[C@H](O)[C@H]2O)CC[C@]2(C)[C@H]3C(=O)C=C4[C@@H]5C[C@@](C)(C(=O)O)CC[C@]5(C)CC[C@@]4(C)[C@]3(C)CC[C@@H]12 ?
2.26

Could you share which log10 AUC(0-t) value was measured for CC1(C)[C@@H](O)CC[C@]2(C)[C@H]3C(=O)C=C4[C@@H]5C[C@@](C)(C(=O)O)CC[C@]5(C)CC[C@@]4(C)[C@]3(C)CC[C@@H]12 ?
3.63

Could you share which log10 AUC(0-t) value was measured for O=C(/C=C/c1ccc(O)cc1)c1ccc(O)cc1O ?
0.92

Could you share which log10 AUC(0-t) value was measured for O=c1ccc2ccc(O)cc2o1 [HDC, 7-hydroxycoumarin] ?
2.10
